Where these numbers come from: patent US20250312469A1

target-desc: hERG (Homo sapiens)
Sequence (Q12809 whole entry): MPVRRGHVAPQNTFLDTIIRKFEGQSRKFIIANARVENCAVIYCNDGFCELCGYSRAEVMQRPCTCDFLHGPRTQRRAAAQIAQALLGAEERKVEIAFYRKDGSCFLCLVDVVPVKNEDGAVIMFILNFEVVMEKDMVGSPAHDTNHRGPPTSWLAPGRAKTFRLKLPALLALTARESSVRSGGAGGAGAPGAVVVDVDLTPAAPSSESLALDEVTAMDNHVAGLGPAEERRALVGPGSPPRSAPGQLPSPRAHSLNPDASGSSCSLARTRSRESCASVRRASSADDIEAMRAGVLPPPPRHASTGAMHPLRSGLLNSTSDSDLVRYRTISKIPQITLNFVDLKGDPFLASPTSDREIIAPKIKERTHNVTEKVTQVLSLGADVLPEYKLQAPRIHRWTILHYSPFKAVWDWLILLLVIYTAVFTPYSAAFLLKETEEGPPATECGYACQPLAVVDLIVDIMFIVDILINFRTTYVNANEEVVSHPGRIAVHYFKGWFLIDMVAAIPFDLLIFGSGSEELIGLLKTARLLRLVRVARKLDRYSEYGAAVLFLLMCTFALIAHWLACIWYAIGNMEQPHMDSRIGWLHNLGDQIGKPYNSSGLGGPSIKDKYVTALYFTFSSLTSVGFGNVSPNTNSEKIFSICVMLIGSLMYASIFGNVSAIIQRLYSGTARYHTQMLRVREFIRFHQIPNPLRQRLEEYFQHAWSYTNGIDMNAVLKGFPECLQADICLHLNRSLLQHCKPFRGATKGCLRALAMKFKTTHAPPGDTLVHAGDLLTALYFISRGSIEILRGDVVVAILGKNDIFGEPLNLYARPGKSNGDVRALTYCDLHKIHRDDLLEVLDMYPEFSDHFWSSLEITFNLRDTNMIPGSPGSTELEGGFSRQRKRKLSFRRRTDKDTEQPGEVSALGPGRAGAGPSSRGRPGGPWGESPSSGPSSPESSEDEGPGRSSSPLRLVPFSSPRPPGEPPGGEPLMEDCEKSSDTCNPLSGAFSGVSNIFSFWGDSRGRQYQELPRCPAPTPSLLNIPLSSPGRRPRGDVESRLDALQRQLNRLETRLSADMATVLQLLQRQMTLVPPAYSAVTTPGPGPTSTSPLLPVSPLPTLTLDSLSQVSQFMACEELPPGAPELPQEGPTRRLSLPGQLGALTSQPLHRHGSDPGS
method: in vitro
recorded-conditions: human, pH 7.2
readout: inhibition at 300 s, 0.01 µM (%)
The reply should contain only the number, in %.

Name the reported inhibition at 300 s, 0.01 µM value associated with the molecule CCC1(O)C(=O)OCc2c1cc1n(c2=O)Cc2cc3cc4c(cc3nc2-1)OCO4 (stereo not shown)
18.7

----------
target-desc: ABCG2/BCRP (Homo sapiens, UniProt Q9UNQ0)
Sequence (Q9UNQ0 1-655): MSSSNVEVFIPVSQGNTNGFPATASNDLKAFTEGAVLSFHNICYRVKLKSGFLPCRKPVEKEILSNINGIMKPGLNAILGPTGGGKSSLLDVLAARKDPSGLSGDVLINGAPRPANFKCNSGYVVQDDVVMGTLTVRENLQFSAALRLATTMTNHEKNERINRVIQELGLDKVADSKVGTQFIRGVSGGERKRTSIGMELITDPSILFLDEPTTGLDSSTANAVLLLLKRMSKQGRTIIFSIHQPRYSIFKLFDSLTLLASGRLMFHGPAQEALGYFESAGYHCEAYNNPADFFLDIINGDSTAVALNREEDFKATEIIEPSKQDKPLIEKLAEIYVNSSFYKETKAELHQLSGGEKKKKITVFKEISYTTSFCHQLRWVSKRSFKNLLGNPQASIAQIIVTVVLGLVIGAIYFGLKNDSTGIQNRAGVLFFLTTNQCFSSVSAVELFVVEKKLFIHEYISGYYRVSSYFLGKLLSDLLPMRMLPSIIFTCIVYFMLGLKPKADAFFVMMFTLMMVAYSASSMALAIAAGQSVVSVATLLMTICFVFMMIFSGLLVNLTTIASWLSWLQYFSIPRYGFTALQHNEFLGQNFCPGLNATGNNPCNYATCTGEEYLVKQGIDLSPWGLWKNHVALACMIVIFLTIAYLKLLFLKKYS
method: in vitro
recorded-conditions: Caco-2, pH 7.4, Papp R2, Caco-2, A-to-B, first FL118 entry (without Ko143)
readout: Papp A→B at 120 min, 1 μM (×10⁻⁶ cm/s)
State the answer as a number, implicitly in ×10⁻⁶ cm/s.

GET /values?readout=Papp A→B at 120 min, 1 μM&item= CCC1(O)C(=O)OCc2c1cc1n(c2=O)Cc2cc3cc4c(cc3nc2-1)OCO4 (stereo not shown) [FL118]
10.3
